measurement-target: Cav2.3 (Homo sapiens, UniProt Q15878)
Sequence (Q15878 1-2270 isoform Q15878-3): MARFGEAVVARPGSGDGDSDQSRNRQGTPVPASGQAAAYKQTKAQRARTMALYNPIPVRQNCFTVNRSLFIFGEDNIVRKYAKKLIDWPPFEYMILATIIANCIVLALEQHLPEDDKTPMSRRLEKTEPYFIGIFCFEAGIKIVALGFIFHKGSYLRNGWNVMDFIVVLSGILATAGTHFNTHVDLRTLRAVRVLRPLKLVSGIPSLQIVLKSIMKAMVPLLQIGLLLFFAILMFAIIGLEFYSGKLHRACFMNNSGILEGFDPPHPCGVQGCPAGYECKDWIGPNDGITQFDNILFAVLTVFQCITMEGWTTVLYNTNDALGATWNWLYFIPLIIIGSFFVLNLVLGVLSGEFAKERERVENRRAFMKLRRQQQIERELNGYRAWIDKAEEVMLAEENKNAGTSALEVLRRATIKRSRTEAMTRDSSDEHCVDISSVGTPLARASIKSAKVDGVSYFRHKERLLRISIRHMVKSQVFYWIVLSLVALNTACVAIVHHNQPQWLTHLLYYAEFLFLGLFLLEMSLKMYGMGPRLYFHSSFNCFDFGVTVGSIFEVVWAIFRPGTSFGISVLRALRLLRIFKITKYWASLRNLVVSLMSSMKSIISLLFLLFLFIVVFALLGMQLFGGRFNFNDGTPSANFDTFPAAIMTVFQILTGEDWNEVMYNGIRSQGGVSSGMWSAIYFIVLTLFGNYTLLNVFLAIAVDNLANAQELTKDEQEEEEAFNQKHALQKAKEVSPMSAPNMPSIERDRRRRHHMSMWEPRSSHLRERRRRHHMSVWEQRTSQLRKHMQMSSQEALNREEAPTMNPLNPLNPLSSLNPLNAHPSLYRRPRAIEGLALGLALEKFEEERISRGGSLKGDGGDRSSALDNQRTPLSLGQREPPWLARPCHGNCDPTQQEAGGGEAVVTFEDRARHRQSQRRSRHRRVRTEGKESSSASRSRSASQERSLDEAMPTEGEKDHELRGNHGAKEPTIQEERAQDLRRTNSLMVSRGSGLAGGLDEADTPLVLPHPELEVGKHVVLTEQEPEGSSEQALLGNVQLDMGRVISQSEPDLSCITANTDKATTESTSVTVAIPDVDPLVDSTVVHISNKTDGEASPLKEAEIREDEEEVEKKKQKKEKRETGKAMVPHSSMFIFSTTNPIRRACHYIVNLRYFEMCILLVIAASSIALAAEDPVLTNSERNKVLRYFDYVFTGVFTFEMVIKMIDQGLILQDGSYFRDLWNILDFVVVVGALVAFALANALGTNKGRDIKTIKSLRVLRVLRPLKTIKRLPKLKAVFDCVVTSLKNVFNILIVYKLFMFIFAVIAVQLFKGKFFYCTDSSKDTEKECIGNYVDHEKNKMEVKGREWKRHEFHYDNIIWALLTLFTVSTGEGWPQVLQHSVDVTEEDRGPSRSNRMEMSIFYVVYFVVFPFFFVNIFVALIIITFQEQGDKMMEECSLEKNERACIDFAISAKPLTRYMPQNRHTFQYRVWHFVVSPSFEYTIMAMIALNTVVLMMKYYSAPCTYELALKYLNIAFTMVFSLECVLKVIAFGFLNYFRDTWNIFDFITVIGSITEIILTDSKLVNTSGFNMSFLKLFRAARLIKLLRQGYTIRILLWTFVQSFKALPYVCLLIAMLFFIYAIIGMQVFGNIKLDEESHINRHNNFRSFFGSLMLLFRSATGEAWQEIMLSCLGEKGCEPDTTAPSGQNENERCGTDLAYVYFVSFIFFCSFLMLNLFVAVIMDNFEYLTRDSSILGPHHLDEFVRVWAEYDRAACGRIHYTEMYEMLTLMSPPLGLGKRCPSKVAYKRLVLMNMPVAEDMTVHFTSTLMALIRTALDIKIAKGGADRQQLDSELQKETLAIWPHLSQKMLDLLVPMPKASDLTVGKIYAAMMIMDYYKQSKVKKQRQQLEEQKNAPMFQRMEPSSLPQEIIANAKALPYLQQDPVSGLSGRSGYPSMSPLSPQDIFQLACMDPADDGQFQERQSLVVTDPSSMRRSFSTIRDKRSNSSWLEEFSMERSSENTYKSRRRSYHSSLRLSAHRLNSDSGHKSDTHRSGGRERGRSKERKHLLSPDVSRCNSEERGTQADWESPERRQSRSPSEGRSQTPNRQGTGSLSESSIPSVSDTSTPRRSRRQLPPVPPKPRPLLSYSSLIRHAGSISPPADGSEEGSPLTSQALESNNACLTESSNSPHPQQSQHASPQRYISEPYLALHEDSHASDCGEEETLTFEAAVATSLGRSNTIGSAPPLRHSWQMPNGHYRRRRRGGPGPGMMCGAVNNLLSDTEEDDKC
protocol-summary: Human Cav2.3 channel calcium-influx assay
Format: cell-based
applied-conditions: HEK-293 T-Rex/Kir2.1 cells with inducible Cav2.3e-β4-α2δ1; Fluo8 fluorescence; 8-point dose response from 30 μM; no pluronic acid; read-out: Cav2.3 (pIC50) (converted)
This section presents molecules with their documented IC50 values.

Reference set, count: 2
- molecule: "CCN(C(c1ccc(F)cc1)C(F)(F)F)S(=O)(=O)c1ccc2c(c1)CN(C(=O)C1COC1)CC2 (stereo not drawn)"
  IC50: "2.04 µM"
- molecule: "C[C@@H](c1ccccc1)N(C)S(=O)(=O)c1ccc2c(c1)CN(C(=O)c1ccccc1)CC2"
  IC50: "2 µM"

Now for another entry.
Exam item: Quote Cav2.3 (Homo sapiens, UniProt Q15878) IC50 for entry CCN([C@@H](c1ccc(F)cc1)C(F)(F)F)S(=O)(=O)c1ccc2c(c1)CN(C(=O)C(C)C)CC2 (stereo in doubt) .
Marked response: 2 µM

###

measurement-target: Cav2.3 (Homo sapiens)
protocol-summary: Human Cav2.3 channel calcium-influx assay
Type: cell-based
applied-conditions: HEK-293 T-Rex/Kir2.1 cells with inducible Cav2.3e-β4-α2δ1; Fluo8 fluorescence; 8-point dose response from 30 μM; no pluronic acid; read-out: Cav2.3 (pIC50) (converted)
parameter: log10 of IC50 (log10 of the value in nM)
Reminder: these figures are log10 of reported IC50, in nM before transformation.

Reference set, count: 5
- compound: "CC(C)C(=O)N1CCc2ccc(S(=O)(=O)N(CCF)C(c3ccc(F)cc3)C(F)(F)F)cc2C1 (stereo not shown)"
  observed-measurement: 2.71
- compound: "CCN([C@@H](C)c1ccc(C(F)(F)F)cc1)S(=O)(=O)c1ccc2c(c1)CCN(C(=O)C(C)C)C2"
  observed-measurement: 3.20
- compound: "CCN([C@H](C)c1ccccc1)S(=O)(=O)c1ccc2c(c1)CCN(C(=O)C(C)C)C2"
  observed-measurement: 3.62
- compound: "CC(C)C(=O)N1CCc2ccc(S(=O)(=O)N(C)[C@H](c3ccc(F)cc3)C(F)(F)F)cc2C1"
  observed-measurement: 2.83
- compound: "CCN(C(c1ccc(F)cc1)C(F)(F)F)S(=O)(=O)c1ccc2c(c1)CN(C(=O)C1CCOCC1)CC2 (stereo not shown)"
  observed-measurement: 2.77

Exam item: Given CC(C)C(=O)N1CCc2ccc(S(=O)(=O)N(C)[C@@H](C)c3ccc(F)cc3)cc2C1 , respond with its log10 of IC50.
Marked response: 2.93

Exam item: Given CCN([C@H](c1ccc(F)cc1)C(F)(F)F)S(=O)(=O)c1ccc2c(c1)CN(C(=O)C(C)C)CC2 (stereo in doubt) , respond with its log10 of IC50.
Marked response: 2.60

Exam item: Given CCN(C(c1ccc(F)cc1)C(F)(F)F)S(=O)(=O)c1ccc2c(c1)CN(C(=O)C(C)(C)F)CC2 (stereo not shown) , respond with its log10 of IC50.
Marked response: 3.04

Exam item: Given CC(C)N1Cc2ccc(S(=O)(=O)N(C)[C@@H](C)c3ccccc3)cc2CC1=O , respond with its log10 of IC50.
Marked response: 4.07

Exam item: Given CCN([C@@H](C)c1ccc(C(F)(F)F)cc1)S(=O)(=O)c1ccc2c(c1)CCN(C(=O)C1CC1)C2 , respond with its log10 of IC50.
Marked response: 3.60
